- Test system: Trypanosoma brucei
- protocol text: Trypanocidal activity against bloodstream form of Trypanosoma brucei 221 assessed as inhibition of parasite growth at pH 7.4 after 48 hrs by Spectramax plate reader analysis
- Format: functional, organism-based
- conditions used: Trypanosoma brucei, 221, 48 h
In this scheme, each record receives a class according to its IC90; the ranges are bottom = under 500 nM, middle = from 500 nM up to 700 nM, top = 700 nM and over

Previously resolved entries follow.
>>> assigned_label("CC1=CC2Cc3nc4cc(Cl)ccc4c(NCCCCCCCCNc4c5c(nc6cc(Cl)ccc46)CCCC5)c3C(C1)C2 (stereo unspecified)")
"bottom"
>>> assigned_label("CC1=CC2Cc3nc4cc(Cl)ccc4c(NCCCCCCCCNc4c5c(nc6ccccc46)CCCC5)c3C(C1)C2 (stereo unspecified)")
"bottom"
>>> assigned_label("CC1=CC2Cc3nc4ccccc4c(NCCCCCCCCCCCCNc4c5c(nc6cc(Cl)ccc46)CCCC5)c3C(C1)C2 (stereo unspecified)")
"top"

Challenge: Quick check: band for CC1=CC2Cc3nc4cc(Cl)ccc4c(NCCCCCCCCCNc4c5c(nc6cc(Cl)ccc46)CCCC5)c3C(C1)C2 (stereo unspecified)
Response given: middle

Challenge: Quick check: band for CC1=CC2Cc3nc4cc(Cl)ccc4c(NCCCCCCNc4c5c(nc6cc(Cl)ccc46)CCCC5)c3C(C1)C2 (stereo unspecified)
Response given: top

Challenge: Quick check: band for CC1=CC2Cc3nc4cc(Cl)ccc4c(NCCCCCCCCCCCCNc4c5c(nc6cc(Cl)ccc46)CCCC5)c3C(C1)C2 (stereo unspecified)
Response given: top

====

compounds and their reported IC50
- protocol text: Inhibition of beta-haematin formation by microplate reader analysis relative to hemin
- Type: physicochemical

>>> result("COc1cc2c(cc1OC)CC(CC1CCN(CCCNc3c4c(nc5cc(Cl)ccc35)CC3C=C(C)CC4C3)CC1)C2 (stereo not given)")
"0.42 equiv"
>>> result("CN(C)[C@@H]1C(O)=C(C(N)=O)C(=O)[C@@]2(O)C(O)=C3C(=O)c4c(O)cccc4[C@@](C)(O)[C@H]3C[C@@H]12")
"> 4 equiv"
>>> result("CC1=CC2Cc3nc4cc(Cl)ccc4c(NCCCCCCCCNc4c5c(nc6ccccc46)CCCC5)c3C(C1)C2 (stereo not given)")
"0.19 equiv"
>>> result("CC1=CC2Cc3nc4cc(Cl)ccc4c(N)c3C(C1)C2 (stereo not given)")
"> 4 equiv"

Then there is this compound:
Challenge: Recorded IC50 for CCN(CC)CCCC(C)Nc1ccnc2cc(Cl)ccc12 (stereo not given) , please?
Response given: 0.14 equiv

====

compounds and their reported selectivity ratio
- protocol text: Selectivity index, ratio of IC50 for rat L6 cells to IC50 for chloroquine-resistant Plasmodium falciparum K1
- Assay type: toxicity, cell-based
- conditions used: read-out: Ratio IC50

Examples with answers:
>>> result("CC1=CC2Cc3nc4cc(Cl)ccc4c(NCCCCCCNc4c5c(nc6cc(Cl)ccc46)CCCC5)c3C(C1)C2 (centres undefined)")
0.25
>>> result("COc1cc2c(cc1OC)C(=O)C(CC1CCN(CCNc3c4c(nc5ccccc35)CCCC4)CC1)C2 (centres undefined)")
"< 0.37"
>>> result("CC1=CC2Cc3nc4cc(Cl)ccc4c(NCCCCCCCCCNc4c5c(nc6cc(Cl)ccc46)CCCC5)c3C(C1)C2 (centres undefined)")
"< 5.9"

Then there is this compound:
Challenge: Recorded selectivity ratio for COc1cc2c(cc1OC)CC(CC1CCN(CCNc3c4c(nc5ccccc35)CCCC4)CC1)C2 , please?
Response given: < 1.2
